- System: NCI-H1299
- Test protocol: Antiproliferative activity against p53 deficient human NCI-H1299 cells after 72 hrs by MTT assay
- Type: functional, cell-based
- Condition context: NCI-H1299, 72 h
pIC50 by entry:
Value format note: pIC50 is -log10 of concentration (mol/L); just state the number.

Some compounds with recorded pIC50:
- Compound: "CCOC1=C(C(=O)c2ccccc2)C(c2ccc(Br)cc2)N(CCCn2ccnc2)C1=O (configuration not stated)"
  pIC50: 4.54
- Compound: "O=C(C1=C(Nc2ccc(I)cc2)C(=O)N(CCCn2ccnc2)C1c1ccc(Br)cc1)c1ccccc1 (configuration not stated)"
  pIC50: 4.71
- Compound: "CCCCCOC1=C(C(=O)c2ccccc2)C(c2ccc(Br)cc2)N(CCCn2ccnc2)C1=O (configuration not stated)"
  pIC50: 4.99

Lab entry: NCI-H1299 assay, compound O=C(C1=C(OC2CCCCC2)C(=O)N(CCCn2ccnc2)C1c1ccc(Br)cc1)c1ccccc1 (configuration not stated) , pIC50 = 4.70

Lab entry: NCI-H1299 assay, compound `C[C@@H](NC1=C(C(=O)c2ccccc2)[C@@H](c2ccc(Br)cc2)N(CCCn2ccnc2)C1=O)c1ccccc1` , pIC50 = 4.84

Lab entry: NCI-H1299 assay, compound NC1=C(C(=O)c2ccccc2)C(c2ccc(Br)cc2)N(CCCn2ccnc2)C1=O (configuration not stated) , pIC50 = 3.77

Lab entry: NCI-H1299 assay, compound CCOc1ccc(NC2=C(C(=O)c3ccccc3)C(c3ccc(Br)cc3)N(CCCn3ccnc3)C2=O)cc1 (configuration not stated) , pIC50 = 4.70

Lab entry: NCI-H1299 assay, compound O=C(C1=C(Nc2cccc(Br)c2)C(=O)N(CCCn2ccnc2)C1c1ccc(Br)cc1)c1ccccc1 (configuration not stated) , pIC50 = 4.94

Lab entry: NCI-H1299 assay, compound O=C(C1=C(Nc2ccccc2)C(=O)N(CCCn2ccnc2)C1c1ccc(Br)cc1)c1ccccc1 (configuration not stated) , pIC50 = 4.67

Lab entry: NCI-H1299 assay, compound O=C(C1=C(Nc2ccc(F)cc2)C(=O)N(CCCn2ccnc2)C1c1ccc(Br)cc1)c1ccccc1 (configuration not stated) , pIC50 = 4.59

Lab entry: NCI-H1299 assay, compound O=C(C1=C(Nc2ccc(Cl)cc2)C(=O)N(CCCn2ccnc2)C1c1ccc(Br)cc1)c1ccccc1 (configuration not stated) , pIC50 = 4.60

Lab entry: NCI-H1299 assay, compound CC(C)OC1=C(C(=O)c2ccccc2)C(c2ccc(Br)cc2)N(CCCn2ccnc2)C1=O (configuration not stated) , pIC50 = 4.72

* * *

- Target: Tumour suppressor p53/oncoprotein Mdm2 (Homo sapiens)
- Test protocol: Inhibition of p53-MDM2 interaction after 1 hr by fluorescence polarization assay
Quantity kind: pKi
Value format note: pKi is -log10 of concentration (mol/L); just state the number.

- Compound: "Cc1ccc(C2C(C(=O)c3ccccc3)=C(O)C(=O)N2CCCn2ccnc2)c(C)c1 (configuration not stated)"
  pKi: 4.97
- Compound: "O=C(C1=C(O)C(=O)N(CCCn2ccnc2)C1c1ccc(Br)cc1)c1ccccc1 (configuration not stated)"
  pKi: 6.54
- Compound: "O=C(C1=C(OC2CCCCC2)C(=O)N(CCCn2ccnc2)C1c1ccc(Br)cc1)c1ccccc1 (configuration not stated)"
  pKi: 6.31
- Compound: "O=C(C1=C(O)C(=O)N(CCCn2ccnc2)C1c1ccc(Br)cc1)c1ccc(Br)cc1 (configuration not stated)"
  pKi: 4.60

Kindly note the recorded pKi for O=C(C1=C(O)C(=O)N(CCCn2ccnc2)C1c1ccccc1Br)c1ccccc1 (configuration not stated) , which is 6.37

Kindly note the recorded pKi for O=C(C1=C(O)C(=O)N(CCCn2ccnc2)C1c1ccc(Br)cc1)c1ccc(I)cc1 (configuration not stated) , which is 5.44

Kindly note the recorded pKi for Cc1ccc(C2C(C(=O)c3ccccc3)=C(O)C(=O)N2CCCn2ccnc2)cc1 (configuration not stated) , which is 6.11

* * *

- Target: Tumour suppressor p53/oncoprotein Mdm2 (Homo sapiens, UniProt Q00987)
- Sequence (P04637 whole entry): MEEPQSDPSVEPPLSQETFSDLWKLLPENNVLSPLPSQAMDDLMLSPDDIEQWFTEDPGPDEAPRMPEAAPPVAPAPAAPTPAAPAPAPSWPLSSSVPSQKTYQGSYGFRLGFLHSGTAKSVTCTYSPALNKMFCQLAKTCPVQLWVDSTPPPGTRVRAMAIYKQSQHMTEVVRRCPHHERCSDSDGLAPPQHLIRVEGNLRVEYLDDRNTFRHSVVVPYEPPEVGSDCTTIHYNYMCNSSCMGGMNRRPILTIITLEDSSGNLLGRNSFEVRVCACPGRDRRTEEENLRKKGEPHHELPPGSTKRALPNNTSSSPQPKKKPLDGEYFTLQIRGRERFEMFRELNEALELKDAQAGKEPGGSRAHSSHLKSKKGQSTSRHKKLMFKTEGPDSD
- Sequence (Q00987 whole entry): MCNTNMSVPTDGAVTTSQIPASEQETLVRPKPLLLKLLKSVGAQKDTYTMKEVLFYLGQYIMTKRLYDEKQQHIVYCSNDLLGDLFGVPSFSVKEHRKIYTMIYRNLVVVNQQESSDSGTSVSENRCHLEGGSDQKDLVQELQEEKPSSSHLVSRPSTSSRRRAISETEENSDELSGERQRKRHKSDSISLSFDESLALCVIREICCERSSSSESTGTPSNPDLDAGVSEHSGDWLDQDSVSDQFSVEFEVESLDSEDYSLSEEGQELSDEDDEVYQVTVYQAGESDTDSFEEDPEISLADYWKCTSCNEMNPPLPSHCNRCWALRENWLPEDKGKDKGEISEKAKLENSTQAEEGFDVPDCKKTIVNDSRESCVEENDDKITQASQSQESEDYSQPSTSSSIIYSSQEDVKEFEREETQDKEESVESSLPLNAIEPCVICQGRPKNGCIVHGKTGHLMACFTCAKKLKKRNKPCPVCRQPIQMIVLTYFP
- Test protocol: Inhibition of p53-MDM2 interaction after 1 hr by fluorescence polarization assay
Quantity kind: pKi
Value format note: pKi is -log10 of concentration (mol/L); just state the number.

- Molecule: "O=C(C1=C(Nc2ccccc2)C(=O)N(CCCn2ccnc2)C1c1ccc(Br)cc1)c1ccccc1 (stereo not given)"
  pKi: 6.85
- Molecule: "O=C(C1=C(Nc2ccc(Br)cc2)C(=O)N(CCCn2ccnc2)C1c1ccc(Br)cc1)c1ccccc1 (stereo not given)"
  pKi: 6.72
- Molecule: "NC1=C(C(=O)c2ccccc2)C(c2ccc(Br)cc2)N(CCCn2ccnc2)C1=O (stereo not given)"
  pKi: 7.32
- Molecule: "O=C(C1=C(O)C(=O)N(CCCn2ccnc2)C1c1cccc([N+](=O)[O-])c1)c1ccccc1 (stereo not given)"
  pKi: 6.08

In the following, a different molecule is considered.
Kindly note the recorded pKi for O=C(C1=C(O)C(=O)N(CCCn2ccnc2)C1c1ccc(Br)cc1)c1ccc([N+](=O)[O-])cc1 (stereo not given) , which is 5.60

* * *

pIC50 by entry:
- Test system: A549
- Test protocol: Antiproliferative activity against human A549 cells expressing wild type p53 after 72 hrs by MTT assay
- Assay type: functional, cell-based
- Condition context: Homo sapiens, A549, 72 h; read-out: IC50
Value format note: pIC50 is -log10 of concentration (mol/L); just state the number.

Some molecules with recorded pIC50:
- Molecule: "CC(C)OC1=C(C(=O)c2ccccc2)C(c2ccc(Br)cc2)N(CCCn2ccnc2)C1=O (stereo unspecified)"
  Quantity kind: "pIC50"
  Observed value: 5.06
- Molecule: "C[C@@H](NC1=C(C(=O)c2ccccc2)[C@H](c2ccc(Br)cc2)N(CCCn2ccnc2)C1=O)c1ccccc1"
  Quantity kind: "pIC50"
  Observed value: 4.80
- Molecule: "CCOC1=C(C(=O)c2ccccc2)C(c2ccc(Br)cc2)N(CCCn2ccnc2)C1=O (stereo unspecified)"
  Quantity kind: "pIC50"
  Observed value: 4.45
- Molecule: "CCCCCOC1=C(C(=O)c2ccccc2)C(c2ccc(Br)cc2)N(CCCn2ccnc2)C1=O (stereo unspecified)"
  Quantity kind: "pIC50"
  Observed value: 5.14
- Molecule: "O=C(C1=C(Nc2ccc(F)cc2)C(=O)N(CCCn2ccnc2)C1c1ccc(Br)cc1)c1ccccc1 (stereo unspecified)"
  Quantity kind: "pIC50"
  Observed value: 4.56

Lab entry: A549 assay, molecule O=C(C1=C(Nc2ccccc2Br)C(=O)N(CCCn2ccnc2)C1c1ccc(Br)cc1)c1ccccc1 (stereo unspecified) , pIC50 = 4.70

* * *

Ki by entry:
- Target: Tumour suppressor protein p53/Mdm4 (Homo sapiens, UniProt O15151)
- Sequence (O15151 whole entry, one chain of several): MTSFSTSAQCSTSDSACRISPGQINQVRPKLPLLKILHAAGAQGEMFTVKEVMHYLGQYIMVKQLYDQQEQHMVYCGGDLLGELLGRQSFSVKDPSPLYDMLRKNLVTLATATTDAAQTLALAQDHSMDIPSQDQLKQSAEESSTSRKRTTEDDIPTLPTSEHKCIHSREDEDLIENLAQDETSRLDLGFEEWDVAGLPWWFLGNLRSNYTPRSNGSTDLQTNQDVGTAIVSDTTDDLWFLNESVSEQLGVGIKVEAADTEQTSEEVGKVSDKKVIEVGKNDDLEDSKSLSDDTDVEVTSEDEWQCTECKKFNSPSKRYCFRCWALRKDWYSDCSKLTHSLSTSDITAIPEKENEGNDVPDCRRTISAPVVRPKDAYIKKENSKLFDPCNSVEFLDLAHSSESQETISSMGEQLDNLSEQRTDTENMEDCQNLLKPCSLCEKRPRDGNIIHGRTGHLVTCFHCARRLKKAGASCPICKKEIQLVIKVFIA
- Test protocol: Inhibition of p53-MDMX interaction after 1 hr by fluorescence polarization assay
State just the number; it will be interpreted in µM.

- Molecule: "O=C(C1=C(OC2CCCCC2)C(=O)N(CCCn2ccnc2)C1c1ccc(Br)cc1)c1ccccc1 (centres undefined)"
  Target: "Tumour suppressor protein p53/Mdm4 (Homo sapiens, UniProt O15151)"
  Ki, µM: 17.9

Kindly note the recorded Ki for CCOC1=C(C(=O)c2ccccc2)C(c2ccc(Br)cc2)N(CCCn2ccnc2)C1=O (centres undefined) , which is 38.9

Kindly note the recorded Ki for CCCOC1=C(C(=O)c2ccccc2)C(c2ccc(Br)cc2)N(CCCn2ccnc2)C1=O (centres undefined) , which is 9.32

Kindly note the recorded Ki for COCCOC1=C(C(=O)c2ccccc2)C(c2ccc(Br)cc2)N(CCCn2ccnc2)C1=O (centres undefined) , which is 2.11

* * *

- Target: Tumour suppressor p53/oncoprotein Mdm2 (Homo sapiens, UniProt Q00987)
- Test protocol: Inhibition of p53-MDM2 interaction after 1 hr by fluorescence polarization assay
Please note: Ki exactly at 900 nM is condition not met. Only values below 900 nM get condition met.

Completed entries (count: 3):
- Compound: "Cc1ccc(NC2=C(C(=O)c3ccccc3)C(c3ccc(Br)cc3)N(CCCn3ccnc3)C2=O)cc1 (stereo not given)"
  Cat: "condition met"
- Compound: "O=C(C1=C(O)C(=O)N(CCCn2ccnc2)C1c1ccc(Br)cc1)c1ccccc1[N+](=O)[O-] (stereo not given)"
  Cat: "condition not met"
- Compound: "O=C(CSc1nnc(-c2ccc(O)cc2)n1-c1ccccc1)Nc1ccccc1"
  Cat: "condition not met"

# input for lookup
Ask: Please determine if O=C(C1=C(O)C(=O)N(CCCn2ccnc2)C1c1ccc([N+](=O)[O-])cc1)c1ccccc1 (stereo not given) is below 900 nM in terms of Ki.
Result: condition met

* * *

- Target: Tumour suppressor p53/oncoprotein Mdm2 (Homo sapiens, UniProt Q00987)
- Test protocol: Inhibition of p53-MDM2 interaction after 1 hr by fluorescence polarization assay
pKi: −log10 of the molar value.
Threshold rule: pKi greater than or equal to 6 is Yes; below that, No.

Completed entries (count: 6):
- Compound: "O=C(C1=C(O)C(=O)N(Cc2cccnc2)C1c1ccc(Cl)cc1)c1ccccc1 (centres undefined)"
  Cat: "Yes"
- Compound: "O=C(C1=C(Nc2ccccc2Br)C(=O)N(CCCn2ccnc2)C1c1ccc(Br)cc1)c1ccccc1 (centres undefined)"
  Cat: "Yes"
- Compound: "O=c1c2cnn(-c3ccccc3)c2nc(Cc2ccccc2)n1Cc1ccccc1"
  Cat: "No"
- Compound: "O=C(C1=C(OCc2ccccc2)C(=O)N(CCCn2ccnc2)C1c1ccc(Br)cc1)c1ccccc1 (centres undefined)"
  Cat: "No"
- Compound: "COc1ccc(CCN2C(=O)C(O)=C(C(=O)c3cccs3)C2c2ccc(C)cc2)cc1 (centres undefined)"
  Cat: "No"
- Compound: "c1ccc(CN2CCN(Cc3ccccc3)C2c2cccnc2)cc1"
  Cat: "No"

# input for lookup
Ask: Please check the record O=C(C1=C(Nc2ccc(Cl)cc2)C(=O)N(CCCn2ccnc2)C1c1ccc(Br)cc1)c1ccccc1 (centres undefined) and state if its pKi is at or above 6.
Result: Yes
